# Tested on: K-562 leukemia
# experimental_protocol: NCI-60 one-dose screen, 48 h (100 = growth as untreated, 0 = no growth, -100 = all killed)
# test_settings: 10 µM unless noted
Compounds without any hit were thinned out: in the full panel of roughly 83,000, 20% have a hit.
Measured growth, listed per entry.
value_kind: growth (%)

compound | value_observed
COc1cc2oc(-c3cccc(C(=O)Nc4ccc(Cl)cc4)c3)cc(=O)c2c(OCCNC(=O)[C@H](CO)NC(=O)OC(C)(C)C)c1OC | 11.3
COc1cc(OC)c2c3nc4cc(C)c(C)cc4nc3n(CCN(C)C)c2c1 | 1.64
COc1ccc(-c2nc3cc(C)ccc3n2CC(=O)N=Nc2c(O)[nH]c3ccc(OC)cc23)cc1 | -28.5
CCCCSc1nc(Nc2ccc(C(C)=O)cc2)c(C#N)c(-c2ccc(OC)cc2)n1 | 69.6
CCN1C(=O)/C(=N\N=C(/C)c2ccc3c(c2)Nc2ccccc2S3)c2cc(Cl)ccc21 | 38.2
O=C(N1c2ccccc2Sc2ccccc21)n1ccc2cccnc21 | 19.5
COc1ccc(NC(=O)c2sc3nc(C(C)C)ccc3c2N)cc1 | 50
COc1ccc2[nH]cc(-c3nnc(N)nc3-c3c[nH]c4ncc(Br)cc34)c2c1 | 74.1
CN1CCN(/C(=N\c2sc(-c3ccccc3)nc2-c2ccccc2)c2ccccc2)CC1 | 17.8
CCN(CC)C(=O)N/C(N)=N/c1nc2ccccc2s1 | 30.3
O=c1[nH]c(=O)c2c(-c3cc4ccccc4oc3=O)ccnc2[nH]1 | 106
Cc1ccc2c(c1)nc(-c1ccccc1)n2CC(=O)N=Nc1c(O)[nH]c2ccc(Br)cc12 | -7.04
CC1=C(C(=O)c2ccccc2)C(c2cccc(Cl)c2Cl)n2c(nc3ccccc32)N1 (stereo not given) | 61.4
COc1cc2c(c(OC)c1OC)C(=O)CC(c1cccc(NC(=O)c3cc([N+](=O)[O-])ccc3Cl)c1)O2 (stereo not given) | 19.5
CC(=O)Nc1cccc(-c2nc3cc(-c4ccc(O)cc4)ccc3n2C)c1 | 35.4
COc1ccc(NC(=O)Cn2c(O)c(N=Nc3ccc(S(N)(=O)=O)cc3)c3ccccc32)cc1 | 40.8
CCN(CC)c1ccc(/C=N/Nc2nc(-c3ccc(Br)cc3)cs2)c(O)c1 | 4.62
Cn1cc(NC(=O)c2cc(NC(=O)c3ccc(C#Cc4ccccc4)cc3)cn2C)cc1C(=O)NCCCN1CCOCC1 | -41.5
C#CCOc1ccc(/C=N/Nc2nc(-c3cc4cc(OC)ccc4oc3=O)cs2)cc1OC | 34.7
N/C(=N\c1nc2ccccc2s1)NC(=O)Nc1c(Cl)cccc1Cl | 19.6

---

# System: HCC-2998 colon
# experimental_protocol: NCI-60 one-dose screen, 48 h (100 = growth as untreated, 0 = no growth, -100 = all killed)
# test_settings: 10 µM unless noted
This is part of a sample that, as a whole, favours compounds with a hit. Of some 83,000 tested, about 20% had one in any assay.
Measured growth, listed per entry.

molecule | target | u | growth
COc1cc2oc(-c3cccc(C(=O)Nc4ccc(Cl)cc4)c3)cc(=O)c2c(OCC(=O)N[C@@H](Cc2ccccc2)C(=O)O)c1OC | HCC-2998 colon | % | 121
CCOC(=O)C1=C(N)N(c2ccccc2)C2=C(C(=O)CC(C)(C)C2)C1c1ccc(Cl)cc1Cl (stereo not drawn) | HCC-2998 colon | % | 37.5
C[C@H]1CN(C(=O)c2ccc3c(NNC(=O)c4ccncn4)nc4cc(F)c(F)cc4n23)CCN1 | HCC-2998 colon | % | 61.7
CCN(CC)C(=O)N/C(N)=N/c1nc2ccccc2s1 | HCC-2998 colon | % | 88.2
Cc1sc(C(NC(=O)OCCn2c([N+](=O)[O-])cnc2C)C(F)(F)Cl)nc1-c1ccc(OC(F)(F)F)cc1 (stereo not drawn) | HCC-2998 colon | % | -96.6
O=C(O)c1cccc(-c2ccc(/C=N/NC(=O)c3[nH]c4ccc(Br)cc4c3-c3ccccc3)o2)c1 | HCC-2998 colon | % | 84.8
COc1ccc2[nH]c(O)c(N=NC(=O)Cn3c(-c4ccccc4)nc4cc(C)ccc43)c2c1 | HCC-2998 colon | % | 18.9
C=C1CC[C@@H]2[C@]3(C)COC(c4cn[nH]c4-c4cccc(Br)c4)O[C@@H]3CC[C@@]2(C)[C@@H]1C/C=C1/C(=O)OCC1O (stereo partly drawn) | HCC-2998 colon | % | -100
